# Tested on: U2OS
# test-summary: Multiplex assay against U2OS
# Type: toxicity, cell-based
# condition-context: human, 48 h, 10 µM, compound concentration 10 uM, replicate 2
value-type: Population Normal (%)
# number only, unit % dropped from output

CN1C(=O)[C@@H](NC(=O)c2cc3ccccc3[nH]2)N=C(c2ccccc2)c2ccccc21 [DEVAZEPIDE]	86

Query string: Please report the recorded Population Normal (%) for `CN(c1cc(C(F)(F)F)nc(OCCC(=O)O)n1)c1cccc2c1CCC2` .
Result string: 93

Query string: What about N#CCNC(=O)c1ccc(-c2ccnc(Nc3ccc(N4CCOCC4)cc3)n2)cc1 [MOMELOTINIB] ?
Result string: 88

Query string: And `CC(/C=C1\SC(=S)N(CCCC(=O)Nc2ccc(C(=O)O)c(O)c2)C1=O)=C\c1ccccc1` ?
Result string: 99

Query string: Also need `Cc1ccc(S(=O)(=O)NC2c3ccccc3Oc3ccccc32)cc1` , thanks.
Result string: 95

Query string: What do we get for `C=CC(=O)Nc1cc(-n2c(=O)ccc3cnc4ccc(-c5ccc(NS(C)(=O)=O)cc5)cc4c32)ccc1C` ?
Result string: 94

Query string: Also CCCCCNC(=N)N/N=C/c1c[nH]c2ccc(OC)cc12.O=C(O)/C=C\C(=O)O [TEGASEROD MALEATE] , if possible.
Result string: 60

Query string: # iterate: `N#Cc1cccc(C(=O)Nc2cc(-c3ccccc3)nn2-c2ccccc2)c1`
Result string: 88

Query string: // repeat for `CN1CCN(Cc2ccc(-c3cnc4[nH]cc(-c5ccc6[nH]ccc6c5)c4c3)cc2)CC1` and report
Result string: 75

Query string: Follow-up item: `CCCCN(CC)c1nc(C)nc2c1c(C)cn2-c1c(C)cc(C)cc1C.Cl`
Result string: 94

Query string: Next up: CC(C)[C@H](CO)Nc1nc(Nc2cccc(Cl)c2)c2ncn(C(C)C)c2n1 [PURVALANOLA]
Result string: 81

Query string: Would you mind doing `c1ccc(-c2oc3ncnc(NC[C@@H]4CCCO4)c3c2-c2ccccc2)cc1` as well?
Result string: 90

Query string: Then what about the compound `CC(C)c1cc(Nc2nc(N3CCC[C@H](N)C3)ncc2C(N)=O)cc(C(C)C)n1` ?
Result string: 73

====

# Lookup of reported Population Healthy Nuclei (%) keyed by entry
# Test system: HEK-293T
# test-summary: Multiplex assay against HEK293T
# Assay type: toxicity, cell-based
# condition-context: human, 12 h, 10 µM, compound concentration 10 uM, replicate 2

Please review the entries below; each comes with its answer.
CN1C(=O)[C@@H](NC(=O)c2cc3ccccc3[nH]2)N=C(c2ccccc2)c2ccccc21 [DEVAZEPIDE]	34%
c1ccc(-c2oc3ncnc(NC[C@@H]4CCCO4)c3c2-c2ccccc2)cc1	31%
Cc1ccc(S(=O)(=O)NC2c3ccccc3Oc3ccccc32)cc1	34%
CCOC(=O)CCNc1cc(N2CCc3ccccc3CC2)nc(-c2ccccn2)n1	87%

Let's switch to this molecule now.
Query string: May I ask what Population Healthy Nuclei (%) has been recorded for `Cl.NC[C@@H]1O[C@H](C23CC4CC(CC(C4)C2)C3)Cc2c1ccc(O)c2O` ?
Result string: 6%

====

# Test system: Fibroblast
# test-summary: Multiplex assay against human fibroblast
# Type: toxicity, cell-based
# condition-context: 48 h, 1 µM, compound concentration 1 uM, replicate 1
value-type: Population Fragmented Nuclei (%)
Output spec: scalar in %, unitless text.

CCCCN(CC)c1nc(C)nc2c1c(C)cn2-c1c(C)cc(C)cc1C.Cl	24
Cl.NC[C@@H]1O[C@H](C23CC4CC(CC(C4)C2)C3)Cc2c1ccc(O)c2O	36
N#Cc1cccc(C(=O)Nc2cc(-c3ccccc3)nn2-c2ccccc2)c1	31
C[C@@H](Oc1cc(-n2cnc3ccc(CN4CCN(C)CC4)cc32)sc1C(N)=O)c1ccccc1C(F)(F)F	42
CN1C(=O)[C@@H](NC(=O)c2cc3ccccc3[nH]2)N=C(c2ccccc2)c2ccccc21 [DEVAZEPIDE]	35

Query string: Can you look up the measured Population Fragmented Nuclei (%) of `Cc1c(P(=S)(c2ccccc2)c2ccccc2)n2ccccc2[n+]1C/C=C/c1ccccc1.[Br-]` for me?
Result string: 33

Query string: Now the compound `Cc1ccc(S(=O)(=O)NC2c3ccccc3Oc3ccccc32)cc1`
Result string: 33

Query string: For `CC(C)[C@H](CO)Nc1nc(Nc2cccc(Cl)c2)c2ncn(C(C)C)c2n1` then?
Result string: 39

Query string: Another: `N#CCNC(=O)c1ccc(-c2ccnc(Nc3ccc(N4CCOCC4)cc3)n2)cc1`
Result string: 34

Ref: ChEMBL document CHEMBL4689842
